# System Name: T1, human CXCR2 (human, UniProt P25025 1-360)
# T1 construct: also called CXC chemokine receptor 2; hCXCR2
# T1 sequence: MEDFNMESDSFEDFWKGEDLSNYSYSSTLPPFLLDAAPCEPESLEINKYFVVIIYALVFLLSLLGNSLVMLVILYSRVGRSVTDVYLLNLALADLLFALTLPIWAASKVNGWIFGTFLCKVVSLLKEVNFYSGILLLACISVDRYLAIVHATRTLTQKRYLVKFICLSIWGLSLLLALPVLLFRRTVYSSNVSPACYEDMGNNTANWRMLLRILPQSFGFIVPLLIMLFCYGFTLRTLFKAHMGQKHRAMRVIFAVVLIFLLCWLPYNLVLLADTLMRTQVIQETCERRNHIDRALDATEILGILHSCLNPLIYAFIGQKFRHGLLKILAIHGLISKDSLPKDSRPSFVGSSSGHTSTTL
# Experiment Notes: flow cytometry, CXCR2-transfected Expi293F cells
Below, each of the binders is paired with its reported Fold change in binding relative to BKO-4A8 value.
I only need the number, in fold, no unit after it.

BKO-4A8 variant VH M34W (antibody, human IgG4 S228P, lambda, V domains shown, IgG4 S228P, lambda; parental light chain; also called 4A8 VH M34W) VH: EVQLLESGGGLVQPGGSLRLSCAASGFTFSSSTWSWVRQAPGKGLEWVSAISGRGRNTYYADSVKGRFTISRDNSRNTLYLQMNSLRAEDTAVYYCAIQMGYWGQGILVTVSS VL: QSALTQPPSASGSPGQSVTISCIGTSSDVGGYNYVSWYQQHPDKAPKLMIYEVNKRPSGVPDRFSGSKSGNTASLTVSGLQAEDEADYYCSSYAGNNNFGVFGGGTKLTVLG = 1.17

In: Need Fold change in binding relative to BKO-4A8, item BKO-4A8 variant VL N94A (antibody, human IgG4 S228P, lambda, V domains shown, IgG4 S228P, lambda; parental heavy chain; also called 4A8 VL N94A) VH: EVQLLESGGGLVQPGGSLRLSCAASGFTFSSSTMSWVRQAPGKGLEWVSAISGRGRNTYYADSVKGRFTISRDNSRNTLYLQMNSLRAEDTAVYYCAIQMGYWGQGILVTVSS VL: QSALTQPPSASGSPGQSVTISCIGTSSDVGGYNYVSWYQQHPDKAPKLMIYEVNKRPSGVPDRFSGSKSGNTASLTVSGLQAEDEADYYCSSYAGANNFGVFGGGTKLTVLG
Out: 1

In: Another: BKO-4A8 variant VH M96Q (antibody, human IgG4 S228P, lambda, V domains shown, IgG4 S228P, lambda; parental light chain; also called 4A8 VH M96Q) VH: EVQLLESGGGLVQPGGSLRLSCAASGFTFSSSTMSWVRQAPGKGLEWVSAISGRGRNTYYADSVKGRFTISRDNSRNTLYLQMNSLRAEDTAVYYCAIQQGYWGQGILVTVSS VL: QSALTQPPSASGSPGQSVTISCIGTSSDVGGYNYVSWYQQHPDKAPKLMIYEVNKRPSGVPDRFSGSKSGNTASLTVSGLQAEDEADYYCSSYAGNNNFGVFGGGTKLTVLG
Out: 1.5

In: Another: BKO-4A8 variant VH Y102K (antibody, human IgG4 S228P, lambda, V domains shown, IgG4 S228P, lambda; parental light chain; also called 4A8 VH Y102K) VH: EVQLLESGGGLVQPGGSLRLSCAASGFTFSSSTMSWVRQAPGKGLEWVSAISGRGRNTYYADSVKGRFTISRDNSRNTLYLQMNSLRAEDTAVYYCAIQMGKWGQGILVTVSS VL: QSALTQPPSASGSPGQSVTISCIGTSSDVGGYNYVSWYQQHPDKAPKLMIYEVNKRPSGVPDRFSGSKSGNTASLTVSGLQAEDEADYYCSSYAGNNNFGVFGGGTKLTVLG
Out: 1.3

In: Another: BKO-4A8 variant VL N95aD (antibody, human IgG4 S228P, lambda, V domains shown, IgG4 S228P, lambda; parental heavy chain; also called 4A8 VL N95aD) VH: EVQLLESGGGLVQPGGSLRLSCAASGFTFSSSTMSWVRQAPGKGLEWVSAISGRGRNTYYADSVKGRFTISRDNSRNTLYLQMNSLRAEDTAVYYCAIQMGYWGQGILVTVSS VL: QSALTQPPSASGSPGQSVTISCIGTSSDVGGYNYVSWYQQHPDKAPKLMIYEVNKRPSGVPDRFSGSKSGNTASLTVSGLQAEDEADYYCSSYAGNNDFGVFGGGTKLTVLG
Out: 2.3

In: Another: BKO-4A8 variant VH S32H (antibody, human IgG4 S228P, lambda, V domains shown, IgG4 S228P, lambda; parental light chain; also called 4A8 VH S32H) VH: EVQLLESGGGLVQPGGSLRLSCAASGFTFSSHTMSWVRQAPGKGLEWVSAISGRGRNTYYADSVKGRFTISRDNSRNTLYLQMNSLRAEDTAVYYCAIQMGYWGQGILVTVSS VL: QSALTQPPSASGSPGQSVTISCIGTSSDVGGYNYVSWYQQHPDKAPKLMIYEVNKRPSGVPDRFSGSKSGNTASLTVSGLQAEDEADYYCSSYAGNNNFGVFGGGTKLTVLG
Out: 0.86

In: Another: BKO-4A8 variant VH G52aD (antibody, human IgG4 S228P, lambda, V domains shown, IgG4 S228P, lambda; parental light chain; also called 4A8 VH G52aD) VH: EVQLLESGGGLVQPGGSLRLSCAASGFTFSSSTMSWVRQAPGKGLEWVSAISDRGRNTYYADSVKGRFTISRDNSRNTLYLQMNSLRAEDTAVYYCAIQMGYWGQGILVTVSS VL: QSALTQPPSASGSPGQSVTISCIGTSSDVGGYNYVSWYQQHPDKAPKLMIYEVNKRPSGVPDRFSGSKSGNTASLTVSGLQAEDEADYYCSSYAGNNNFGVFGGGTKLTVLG
Out: 1.18

In: Another: BKO-4A8 variant VH I51H (antibody, human IgG4 S228P, lambda, V domains shown, IgG4 S228P, lambda; parental light chain; also called 4A8 VH I51H) VH: EVQLLESGGGLVQPGGSLRLSCAASGFTFSSSTMSWVRQAPGKGLEWVSAHSGRGRNTYYADSVKGRFTISRDNSRNTLYLQMNSLRAEDTAVYYCAIQMGYWGQGILVTVSS VL: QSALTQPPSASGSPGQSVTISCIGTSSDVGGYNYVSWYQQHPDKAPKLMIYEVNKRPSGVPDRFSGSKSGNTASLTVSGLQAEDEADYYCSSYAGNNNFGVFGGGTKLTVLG
Out: 1.8
